TEST_NAME: Cytotoxicity against human TZM-bl cells after 48 hrs by MTT assay
Assay type: cell-based

{"columns": ["CHEM_SMILES", "READOUT_QUALIFIER", "CC50 at 48 h, µM"],
 "data": [
  ["Cc1nnc(C(=O)NC(C)(C)c2nc(C(=O)NCc3ccc(F)cc3)c(O)c(=O)n2C)o1", ">", 30],
  ["Cc1c(C(=O)/C=C(\\O)c2cc(O)c(O)c(O)c2)nnn1Cc1ccc(F)cc1", "=", 33.4],
  ["Cc1c(C(=O)/C=C(\\O)c2cc(O)c(O)c(O)c2)nnn1Cc1cccc(F)c1", "=", 36.6]
]}

* * *

TARGET_DESC: Human immunodeficiency virus type 1 integrase (Human immunodeficiency virus 1, UniProt Q7ZJM1)
Sequence (Q7ZJM1 whole entry): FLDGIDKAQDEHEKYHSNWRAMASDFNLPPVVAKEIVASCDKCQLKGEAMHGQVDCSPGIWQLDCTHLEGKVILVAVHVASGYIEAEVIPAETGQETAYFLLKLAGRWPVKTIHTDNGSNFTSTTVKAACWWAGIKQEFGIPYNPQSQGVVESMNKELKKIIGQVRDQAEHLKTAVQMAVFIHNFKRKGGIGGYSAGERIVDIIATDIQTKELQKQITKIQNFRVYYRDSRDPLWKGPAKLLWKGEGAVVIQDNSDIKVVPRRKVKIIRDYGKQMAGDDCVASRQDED
REPORTED_ENDPOINT: IC50

{"columns": ["CHEM_SMILES", "RESULT"],
 "data": [
  ["COc1ccc(/C(O)=C/C(=O)c2nnn(Cc3ccc(F)cc3)c2C)cc1OC", "> 50 µM"],
  ["Cc1c(C(=O)/C=C(\\O)c2cc(O)c(O)c(O)c2)nnn1Cc1cccc(F)c1", "0.78 µM"],
  ["COc1ccc(/C(O)=C/C(=O)c2nnn(Cc3ccc(F)cc3)c2C)cc1", "> 54 µM"],
  ["COc1cc(/C(O)=C/C(=O)c2nnn(Cc3ccc(F)cc3)c2C)cc(OC)c1OC", "> 47 µM"],
  ["Cc1c(C(=O)/C=C(\\O)c2ccc(O)c(O)c2)nnn1Cc1ccc(F)cc1", "40 µM"],
  ["Cc1c(C(=O)/C=C(\\O)c2ccccc2)nnn1Cc1ccc(F)cc1", "> 59 µM"],
  ["Cc1c(C(=O)/C=C(\\O)c2cc(O)c(O)c(O)c2)nnn1Cc1ccc(F)cc1", "2.6 µM"],
  ["Cc1c(C(=O)/C=C(\\O)c2ccccc2)nnn1Cc1cccc(F)c1", "> 59 µM"],
  ["Cc1c(C(=O)/C=C(\\O)c2ccc(O)c(O)c2)nnn1Cc1cccc(F)c1", "32 µM"],
  ["COc1ccc(/C(O)=C/C(=O)c2nnn(Cc3cccc(F)c3)c2C)cc1", "> 54 µM"],
  ["Cc1c(C(=O)/C=C(\\O)c2ccc(O)cc2)nnn1Cc1ccc(F)cc1", "> 56 µM"],
  ["COc1ccc(/C(O)=C/C(=O)c2nnn(Cc3cccc(F)c3)c2C)cc1OC", "> 50 µM"],
  ["COc1cc(/C(O)=C/C(=O)c2nnn(Cc3cccc(F)c3)c2C)cc(OC)c1OC", "> 47 µM"],
  ["Cc1c(C(=O)/C=C(\\O)c2ccc(O)cc2)nnn1Cc1cccc(F)c1", "> 56 µM"]
]}

* * *

# key: entry, value: selectivity ratio
TEST_NAME: Therapeutic index, ratio of CC50 for human TZM-bl cells to EC50 for Human immunodeficiency virus 1
Type: cell-based
DETAILS: read-out: Ratio CC50/EC50

{"columns": ["CHEM_SMILES", "selectivity ratio"],
 "data": [
  ["Cc1c(C(=O)/C=C(\\O)c2cc(O)c(O)c(O)c2)nnn1Cc1ccc(F)cc1", 3.7],
  ["Cc1c(C(=O)/C=C(\\O)c2cc(O)c(O)c(O)c2)nnn1Cc1cccc(F)c1", 5]
]}

Measured values drawn from ChEMBL document CHEMBL1926654 for this set.
